- Tested on: HOP-92 NSCLC
- protocol.description: NCI tumour cell line growth inhibition, 48 h
quantity.measured: GI50

COc1cc(/C=C2\C(=O)Nc3cc(C)c(O)cc32)cc(OC)c1OC	5610 nM
COc1ccc(-c2cn[nH]c2-c2cc(OC)c3c(c2)OCO3)cc1	417 nM
CC(C)(C)C(=O)c1c(C(F)(F)F)n([O-])c2ccccc2[n+]1=O	573 nM
CCN(Cc1cccc(F)c1)c1ccc(CO)c(Cl)c1	1860 nM
C#CCOc1cccc(-c2ncnc3cc(NC(=O)CCl)ccc23)c1	1420 nM
C[N-]c1nnnn1C.[Au+].c1ccc([PH+](c2ccccc2)c2ccccc2)cc1	2670 nM
O=C(Nc1cccc(-n2ccc3c(NC(=O)c4ccccc4)nccc32)c1)Nc1cc(C(F)(F)F)cc(C(F)(F)F)c1	853 nM
N[C@H](C(=O)O)[C@H]1ON=C(Cl)[C@@H]1O	52200 nM
COc1cc(NC(N)=NCCC(C)(C)Oc2ccc(C(F)(F)F)cc2)ncc1C#N	1380 nM
COc1ccc(S(=O)(=O)N2CC(C)(C)CN(S(=O)(=O)c3ccc(OC)cc3)C2C(=O)NO)cc1	8140 nM

Q: Recorded GI50 of [Cl][Hg][Cl] , please.
A: 17300 nM

Q: Recorded GI50 of O=c1c(Oc2ccc(F)cc2F)cc2cnc(NC3CCOCC3)nc2n1CCCO , please.
A: > 25000 nM

Q: Recorded GI50 of CC[N+](CC)=c1sc2c(s1)C(c1ccc(Cl)cc1)Oc1ccc(Cl)cc1-2 (stereo not given) , please.
A: 2400 nM

Q: Recorded GI50 of CN(C)CCCNC(=O)c1cc(NC(=O)c2cc(NC(=O)CCc3c[nH]c4ccccc34)cn2C)cn1C , please.
A: 72800 nM

Q: Recorded GI50 of CCC[CH2][Sn]([CH2]CCC)([CH2]CCC)[O]c1ccc(Cl)cc1Cl , please.
A: 73.3 nM

Q: Recorded GI50 of CCOC(=O)N1CCN(c2nc(Nc3cc(C)[nH]n3)c3ccccc3n2)CC1 , please.
A: 1920 nM

Q: Recorded GI50 of COc1ccc(C(=O)/C=C/c2ccc(C)cc2)cc1OC , please.
A: 12600 nM

###

- Test system: NCI-H522 lung
- protocol.description: NCI tumour cell line growth inhibition, 48 h
quantity.measured: log10 of TGI (log10 of the value in µM)
Form field - Quantity: TGI; Unit: µM; Scale: log10

O=C(/C=C/c1ccc(O)c(O)c1)OCCCc1ccccc1	0.75

Moving on to the next compound.
Q: Recorded log10 of TGI of COc1cccc(-c2nc3sccn3c2-c2ccnc(NCCCNS(=O)(=O)c3cccc(F)c3)c2)c1 , please.
A: 0.92

###

- Tested on: COLO 205 colon
- protocol.description: NCI tumour cell line growth inhibition, 48 h
molecules and their reported TGI
# output: bare number, implied unit µM

Worked examples, 4 molecules total:
C[Si](C)(OCCS(=O)(=O)O)C1(Cc2cccc3ccccc23)S(=O)(=O)OCCOS1(=O)=O	25.3
COc1cc(/C=C2\C(=O)Nc3cc(C)c(O)cc32)cc(OC)c1OC	22.8
O=S(=O)(CCBr)CCBr	12.7
CCC[CH2][Sn]([CH2]CCC)([CH2]CCC)[O]c1ccc(Cl)cc1Cl	0.31

Moving on to the next molecule.
Q: Recorded TGI of COC(=O)[C@]1(c2cc3ccccc3n2S(=O)(=O)c2ccccc2)CC2CN(C(C)=O)C1CC2=O (stereo not given in full) , please.
A: 7.29
